PC-3 (prostate, adenocarcinoma) cell viability (% of control) by entry:
Test system: PC-3 (prostate, adenocarcinoma) cells
Experiment: Cell viability assay, CellTiter-Glo (Example 21)
Assay type: cell-based, human
Settings: 100 nM, 72 h treatment
Experimental: Effect of the selected compounds on cancer cell viability was measured via CellTiter-Glo® luminescent cell viability assay (Promega, Madison, WI, USA) according to the manufacturer's instructions. Cells were plated onto a flat-bottomed, white 96 well plate (BRANDplates®, cat. no.: 781965). […] After the treatment, the luminescence signal was recorded using a microplate reader (BioTek Synergy 2 Multi-Mode Reader, BioTek, Winooski, VT, USA). […]

Example entries and their recorded answers appear below.
* [N-]=[N+]=Nc1ccc(CN2C(=O)C3=C(CCN(Cc4cc(F)cc(F)c4)C3)N3CCN=C23)cc1 | 32.7 ± 2.6 % of control
* O=C1C2=C(CCN(Cc3cc(F)cc(F)c3)C2)N2CCN=C2N1Cc1ccc(C(F)(F)F)cc1 | 32.1 ± 3.6 % of control
* O=C1C2=C(CCN(Cc3cccc(F)c3)C2)N2CCN=C2N1Cc1ccc(C(F)(F)F)cc1 [I/3, reference compound] | 34.7 ± 1.0 % of control
* O=C1C2=C(CCN(Cc3cc(F)cc(F)c3)C2)N2CCN=C2N1Cc1ccc(F)cc1 | 34.6 ± 3.0 % of control

From here, focus on the item given below.
Ask: Please state recorded PC-3 (prostate, adenocarcinoma) cell viability (% of control) (tested on PC-3 (prostate, adenocarcinoma) cells) of O=C1C2=C(CCN(Cc3cccc(F)c3)C2)N2CCN=C2N1Cc1ccc(F)cc1 [I/6, reference compound]
Result: 35.3 ± 0.5 % of control

----------
system: Panc-1 (pancreas, carcinoma) cells; experiment: Cell viability assay, CellTiter-Glo (Example 21); format: cell-based, human; conditions: 300 nM, 72 h treatment
resultType: Panc-1 (pancreas, carcinoma) cell viability (% of control)

Example entries and their recorded answers appear below.
* [N-]=[N+]=Nc1ccc(CN2C(=O)C3=C(CCN(Cc4cc(F)cc(F)c4)C3)N3CCN=C23)cc1 | 55.0 ± 3.2 % of control
* O=C1C2=C(CCN(Cc3cc(F)cc(F)c3)C2)N2CCN=C2N1Cc1ccc(F)cc1 | 53.5 ± 0.6 % of control
* O=C1C2=C(CCN(Cc3cc(F)cc(F)c3)C2)N2CCN=C2N1Cc1ccc(Cl)cc1 | 51.2 ± 0.4 % of control
* O=C1C2=C(CCN(Cc3cc(F)cc(F)c3)C2)N2CCN=C2N1Cc1ccc(C(F)(F)F)cc1 | 49.1 ± 0.2 % of control

From here, focus on the item given below.
Ask: Which Panc-1 (pancreas, carcinoma) cell viability (% of control) is listed for O=C1C2=C(CCN(Cc3cccc(F)c3)C2)N2CCN=C2N1Cc1ccc(F)cc1 [I/6, reference compound] ?
Result: 57.2 ± 3.2 % of control

----------
Test system: PC-3 (prostate, adenocarcinoma) cells
Experiment: Cell viability assay, CellTiter-Glo (Example 21)
Format: cell-based, human
Details: 300 nM, 72 h treatment
Method: Effect of the selected compounds on cancer cell viability was measured via CellTiter-Glo® luminescent cell viability assay (Promega, Madison, WI, USA) according to the manufacturer's instructions. Cells were plated onto a flat-bottomed, white 96 well plate (BRANDplates®, cat. no.: 781965). […] After the treatment, the luminescence signal was recorded using a microplate reader (BioTek Synergy 2 Multi-Mode Reader, BioTek, Winooski, VT, USA). […]
PC-3 (prostate, adenocarcinoma) cell viability (% of control) by entry:

Ask: Which PC-3 (prostate, adenocarcinoma) cell viability (% of control) is listed for O=C1C2=C(CCN(Cc3ccccc3)C2)N2CCN=C2N1Cc1ccc(C(F)(F)F)cc1 [I/1, reference compound] ?
Result: 33.3 ± 3.3 % of control
